Compiled literature IC50, tested on Mast/stem cell growth factor receptor Kit (Homo sapiens).

{"compound-structure": "CS(=O)(=O)Nc1ccc(F)c(C(=O)c2c[nH]c3ncc(-c4cccc(S(C)(=O)=O)c4)cc23)c1F", "quantity-kind": "IC50", "measured": "≤ 10 µM"}

The measured IC50 that "COc1cc(Cc2c[nH]c3ncccc23)c(F)cc1OCc1nc2ccc(Cl)cc2[nH]1" showed for Mast/stem cell growth factor receptor Kit (Homo sapiens) is ≤ 10 µM

The measured IC50 that "Cc1cnc2[nH]cc(C(=O)c3c(F)ccc(NS(=O)(=O)N4CCOCC4)c3F)c2c1" showed for Mast/stem cell growth factor receptor Kit (Homo sapiens) is ≤ 10 µM

The measured IC50 that "CCOc1ccc(Nc2ncc(Cc3c[nH]c4ncc(C)cc34)cn2)cc1" showed for Mast/stem cell growth factor receptor Kit (Homo sapiens) is < 0.01 µM
